# Test system: carbapenemase producing K. pneumoniae
# protocol_text: MIC by broth micro-dilution (CLSI), carbapenemase producing K. pneumoniae
# Format: cell-based, Klebsiella pneumoniae
# condition_notes: Klebsiella pneumoniae, ATCCBAA1705, KPC-2 K. pneumoniae ATCC BAA-1705; read-out: MIC
As shown below, each of these molecules has a reported log10 of MIC value.
measurement_label: log10 of MIC (log10 of the value in µg/mL)

# molecule, log10 of MIC
measured = [
    ("C[C@@H]1C(S[C@@H]2CN[C@H](C(=O)N(C)C)C2)=C(C(=O)O)N2C(=O)[C@H]([C@@H](C)NC(=O)C(F)F)[C@@H]12", 0.00),
    ("C[C@@H](NC(=O)C(N)C(F)(F)F)[C@H]1C(=O)N2C(C(=O)O)=C(S[C@@H]3CN[C@H](C(=O)N(C)C)C3)[C@H](C)[C@H]12 (some centres unmarked)", 0.90),
    ("C[C@@H](NC(=O)Cn1cnnn1)[C@H]1C(=O)N2C(C(=O)O)=C(S[C@@H]3CN[C@H](C(=O)N4CC5CCN(C(=N)N)C5C4)C3)[C@H](C)[C@H]12 (single isomer, unassigned)", 0.00),
    ("C[C@@H](NC(=O)CN(C)C(=N)N)[C@H]1C(=O)N2C(C(=O)O)=C(S[C@@H]3CN[C@H](C(=O)N(C)C)C3)[C@H](C)[C@H]12", 0.30),
    ("C[C@@H](NC(=O)C(F)F)[C@H]1C(=O)N2C(C(=O)O)=C(S[C@@H]3CN[C@H](C(=O)N4CCN(C(=N)N)CC4)C3)[C@H](C)[C@H]12", 0.60),
    ("C[C@@H](NC(=O)Cn1cnnn1)[C@H]1C(=O)N2C(C(=O)O)=C(S[C@@H]3CN[C@H](C(=O)N4CC[N+](C)(CC(N)=O)CC4)C3)[C@H](C)[C@H]12.[I-]", 0.30),
    ("C[C@@H](NC(=O)[C@@H]1CS(=O)(=O)CN1)[C@H]1C(=O)N2C(C(=O)O)=C(S[C@@H]3CN[C@H](CNS(N)(=O)=O)C3)[C@H](C)[C@H]12", 1.20),
    ("C[C@@H](NC(=O)Cn1cnnn1)[C@H]1C(=O)N2C(C(=O)O)=C(SCCNC(=N)N)[C@H](C)[C@H]12", 0.00),
    ("C[C@@H](NC(=O)Cn1nnnc1C(C)(C)C)[C@H]1C(=O)N2C(C(=O)O)=C(S[C@@H]3CN[C@H](C(=O)N4CC[C@@H](N)C4)C3)[C@H](C)[C@H]12", 1.20),
]

====

As shown below, each of these molecules has a reported MIC value.
# Tested on: carbapenemase producing K. pneumoniae
# protocol_text: MIC by broth micro-dilution (CLSI), carbapenemase producing K. pneumoniae
# Assay type: cell-based, Klebsiella pneumoniae
# condition_notes: Klebsiella pneumoniae, ATCCBAA1705, KPC-2 K. pneumoniae ATCC BAA-1705; read-out: MIC
measurement_label: MIC (µg/mL)

# molecule_smiles, measurement_label, uom, qualifier_symbol, reading
records = [
    ("C[C@@H](NC(=O)Cn1cnnn1)[C@H]1C(=O)N2C(C(=O)O)=C(S[C@@H]3CN[C@H](C(=O)N4C[C@H](N)C[C@@H]4CN)C3)[C@H](C)[C@H]12", "MIC", "µg/mL", "=", 2),
    ("C[C@@H](NC(=O)C(F)F)[C@H]1C(=O)N2C(C(=O)O)=C(SCCNC(=O)OC(C)(C)C)[C@H](C)[C@H]12", "MIC", "µg/mL", ">", 128),
    ("CNCC(=O)N[C@H](C)[C@H]1C(=O)N2C(C(=O)O)=C(S[C@@H]3CN[C@H](C(=O)N4CC[C@H](N)C4)C3)[C@H](C)[C@H]12", "MIC", "µg/mL", "=", 8),
    ("C[C@@H](NC(=O)Cn1cnnn1)[C@H]1C(=O)N2C(C(=O)O)=C(S[C@@H]3CN[C@H](C(=O)N4CCN(CCN5CCNCC5)CC4)C3)[C@H](C)[C@H]12", "MIC", "µg/mL", "=", 1),
    ("C[C@@H](NC(=O)C(F)F)[C@H]1C(=O)N2C(C(=O)O)=C(S[C@@H]3CN[C@H](C(=O)N4CC[C@H](NC(=O)CC#N)C4)C3)[C@H](C)[C@H]12", "MIC", "µg/mL", "=", 8),
]

====

# Test system: carbapenemase producing K. pneumoniae
# protocol_text: MIC by broth micro-dilution (CLSI), carbapenemase producing K. pneumoniae
# Format: cell-based, Klebsiella pneumoniae
# condition_notes: Klebsiella pneumoniae, ATCCBAA1705, KPC-2 K. pneumoniae ATCC BAA-1705; read-out: MIC
measurement_label: MIC (µg/mL)

# compound, measurement_label, uom, reading
measured = [
    ("C[C@@H](NC(=O)Cn1cnnn1)[C@H]1C(=O)N2C(C(=O)O)=C(S[C@@H]3CN[C@H](CC(=O)N4CCC(N)C4)C3)[C@H](C)[C@H]12 (stereo in doubt)", "MIC", "µg/mL", 2),
    ("C[C@@H](NC(=O)Cn1cnnn1)[C@H]1C(=O)N2C(C(=O)O)=C(S[C@@H]3CN[C@H](C(=O)N4CC(N)C(CO)C4)C3)[C@H](C)[C@H]12 (single isomer, unassigned)", "MIC", "µg/mL", 1),
    ("C[C@@H](NC(=O)Cn1cnnn1)[C@H]1C(=O)N2C(C(=O)O)=C(S[C@@H]3CN[C@H](C(=O)N4CC5(CCNC5)C4)C3)[C@H](C)[C@H]12", "MIC", "µg/mL", 1),
]

====

# System: carbapenemase producing K. pneumoniae
# protocol_text: MIC by broth micro-dilution (CLSI), carbapenemase producing K. pneumoniae
# Type: cell-based, Klebsiella pneumoniae
# condition_notes: Klebsiella pneumoniae, ATCCBAA1705, KPC-2 K. pneumoniae ATCC BAA-1705; read-out: MIC

# molecule, system_under_test, uom, MIC
rows = [
    ("C[C@@H](NC(=O)Cn1cnnn1)[C@H]1C(=O)N2C(C(=O)O)=C(S[C@@H]3CN[C@H](C(=O)N4CCN(C(=O)CNC(=N)N)CC4)C3)[C@H](C)[C@H]12", "carbapenemase producing K. pneumoniae", "µg/mL", 1),
    ("C[C@@H](NC(=O)Cn1cnnn1)[C@H]1C(=O)N2C(C(=O)O)=C(S[C@@H]3CN[C@H](C(=O)N4CCC5CNCC5(CO)C4)C3)[C@H](C)[C@H]12 (single isomer, unassigned)", "carbapenemase producing K. pneumoniae", "µg/mL", 2),
    ("C[C@@H](NC(=O)Cn1cnnn1)[C@H]1C(=O)N2C(C(=O)O)=C(S[C@@H]3CN[C@H](C(=O)N4CCN[C@@H](CN)C4)C3)[C@H](C)[C@H]12", "carbapenemase producing K. pneumoniae", "µg/mL", 4),
    ("CNCC(=O)N[C@H](C)[C@H]1C(=O)N2C(C(=O)O)=C(S[C@@H]3CN[C@H](C(=O)N4CC[N+](C)(CCN)CC4)C3)[C@H](C)[C@H]12", "carbapenemase producing K. pneumoniae", "µg/mL", 4),
    ("C[C@@H](NC(=O)Cn1cnnn1)[C@H]1C(=O)N2C(C(=O)O)=C(S[C@@H]3CN[C@H](C(=O)N4CC5CCN(CCN)C5C4)C3)[C@H](C)[C@H]12 (some centres unmarked)", "carbapenemase producing K. pneumoniae", "µg/mL", 2),
    ("C[C@@H](NC(=O)Cn1cnnn1)[C@H]1C(=O)N2C(C(=O)[O-])=C(SCc3ccc(-c4cn(CCCN)[n+](C)c4)cc3)[C@H](C)[C@H]12", "carbapenemase producing K. pneumoniae", "µg/mL", 16),
    ("C[C@@H](NC(=O)Cn1cnnn1)[C@H]1C(=O)N2C(C(=O)O)=C(S[C@@H]3CN[C@H](C(=O)N4CC[C@@H](N)[C@H](O)C4)C3)[C@H](C)[C@H]12", "carbapenemase producing K. pneumoniae", "µg/mL", 1),
    ("C[C@@H](NC(=O)Cn1nnnc1-c1cccs1)[C@H]1C(=O)N2C(C(=O)O)=C(S[C@@H]3CN[C@H](C(=O)N4CC[C@@H](N)C4)C3)[C@H](C)[C@H]12", "carbapenemase producing K. pneumoniae", "µg/mL", 32),
    ("C[C@@H](NC(=O)Cn1cnnn1)[C@H]1C(=O)N2C(C(=O)[O-])=C(Sc3cn(C[C@@H]4CCNC4)[n+](C)c3)[C@H](C)[C@H]12", "carbapenemase producing K. pneumoniae", "µg/mL", 32),
    ("C[C@@H](NS(=O)(=O)Cn1cnnn1)[C@H]1C(=O)N2C(C(=O)O)=C(S[C@@H]3CN[C@H](C(=O)N4CC[C@@H](N)C4)C3)[C@H](C)[C@H]12", "carbapenemase producing K. pneumoniae", "µg/mL", 8),
    ("CNCC(=O)N[C@H](C)[C@H]1C(=O)N2C(C(=O)O)=C(S[C@@H]3CN[C@H](CNS(N)(=O)=O)C3)[C@H](C)[C@H]12", "carbapenemase producing K. pneumoniae", "µg/mL", 2),
]
